Data origin: patent US10233426B2

# Tested on: monkey ES cell line transfected with an αMHC promoter-driven GFP gene
# assayProcedure: Chemical screening: GFP fluorometry for cardiac differentiation of monkey ES cells
# Assay type: cell-based, cynomolgus monkey
# protocolConditions: test compound 1 μM in Early phase (day 0 to day 3); 10 μM KY02111 in late phase; GFP fluorometry day 9
assayReadout: intensity of GFP fluorescence relative to control culture (KY02111 only, assigned to one)

Below are worked cases with known answers.
{"compound": "CC(C)(C)c1ccc(S(=O)(=O)Nc2ccc(-n3ccnc3)cc2)cc1 [ISCK03]", "observedValue": 0}
{"compound": "O=C1NC(=O)/C(=C\\c2ccc3nccnc3c2)S1 [AS605240]", "observedValue": 0.84}

Data request: Specify reported intensity of GFP fluorescence relative to control culture (KY02111 only, assigned to one) for the compound shown: OCCn1cc(-c2cnc3nnn(Cc4ccc5ncccc5c4)c3n2)cn1 [PF042I7903]
Data returned: 0.99
